# System: Fusobacterium nucleatum
# methodDescription: Inhibition of Fusobacterium nucleatum ATCC 25586 recombinant MGL K238A mutant expressed in Escherichia coli BL21 (DE3) assessed as decrease in signal intensity by measuring recovery ratio by 19F NMR based competition assay relative to wild type
# Parameters: concentration or dose not given beside the values
The source made the active and inactive calls. The calls are words filed in the database; no cut-off is given here.
metricName: Activity

Guide cases for Activity, answers given:
CCOC(=O)c1nc(-c2ccc(F)cc2)no1 :: Active
CC(C)(C)OC(=O)N1CCC(CN)(c2ccccc2C(F)(F)F)CC1 :: 50%
CC(C)(Cc1ccc(C(F)(F)F)cc1)C(=O)O :: 80%
CC(C)(Cc1cccc(C(F)(F)F)c1)C(=O)O :: 50%
COCCOc1ccc(C(=O)O)cc1C(F)(F)F :: Active

**Q:** Item O=C(O)c1ccnc(OC(F)F)c1 has what recorded Activity?
**A:** Active

**Q:** Same question for Nc1cc(F)c(OCC2CCC2)c(F)c1 please.
**A:** 50%

**Q:** Same question for O=C(O)c1ccnc(OC(F)(F)F)c1 please.
**A:** 50%

**Q:** Same question for O=C(O)c1cnc(OCC(F)(F)F)cn1 please.
**A:** 50%

**Q:** Same question for O=C(O)c1cn(-c2ccc(C(F)(F)F)cc2)cn1 please.
**A:** Active

**Q:** Same question for O=C(O)c1cc(C(F)(F)F)nn1-c1ccccc1 please.
**A:** Active

**Q:** Same question for O=C(O)c1cncc(OCC(F)(F)F)c1 please.
**A:** Active

**Q:** Same question for CC(C)(CC(=O)O)c1ccc(F)cc1 please.
**A:** 50%
